Value source: patent US20150322137A1

Parameter: IC50, neutralizing activity (hMPV infection of LLC-MK2 cells; GraphPad Prism 6). Scope: all listed entries.
# target_under_test: F protein of human metapneumovirus strain JPS03-180 (type A1), on infectious virus (human metapneumovirus, strain JPS03-180 …)
# method_summary: cell-based or functional assay
measured_quantity: IC50, neutralizing activity (hMPV infection of LLC-MK2 cells; GraphPad Prism 6) (µg/mL)

binder	uom	value
EV046150 (antibody, human IgG1, kappa, V domains shown) VH: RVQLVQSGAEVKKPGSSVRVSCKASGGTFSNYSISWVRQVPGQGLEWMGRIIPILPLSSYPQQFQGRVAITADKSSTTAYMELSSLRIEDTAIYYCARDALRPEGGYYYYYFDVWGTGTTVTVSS VL: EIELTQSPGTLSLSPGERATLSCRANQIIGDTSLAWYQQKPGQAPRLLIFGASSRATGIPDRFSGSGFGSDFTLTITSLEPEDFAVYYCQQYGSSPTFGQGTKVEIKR	µg/mL	0.0618
EV046135 (antibody, human IgG1, lambda, V domains shown) VH: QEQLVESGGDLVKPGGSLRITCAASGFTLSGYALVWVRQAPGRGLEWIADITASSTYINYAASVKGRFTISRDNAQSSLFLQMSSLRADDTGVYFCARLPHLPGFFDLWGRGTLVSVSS VL: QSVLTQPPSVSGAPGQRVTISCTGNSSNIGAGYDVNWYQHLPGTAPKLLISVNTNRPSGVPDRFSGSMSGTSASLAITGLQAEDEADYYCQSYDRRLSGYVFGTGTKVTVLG	µg/mL	0.348
EV046136 (antibody, human IgG1, kappa, V domains shown) VH: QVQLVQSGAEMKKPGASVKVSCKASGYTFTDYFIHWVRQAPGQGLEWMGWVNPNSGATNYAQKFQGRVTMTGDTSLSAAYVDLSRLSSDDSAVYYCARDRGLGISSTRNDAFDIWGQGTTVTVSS VL: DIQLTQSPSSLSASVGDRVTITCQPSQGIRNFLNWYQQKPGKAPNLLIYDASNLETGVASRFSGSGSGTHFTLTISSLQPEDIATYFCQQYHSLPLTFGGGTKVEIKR	µg/mL	0.318
EV046124 (antibody, human IgG1, lambda, V domains shown) VH: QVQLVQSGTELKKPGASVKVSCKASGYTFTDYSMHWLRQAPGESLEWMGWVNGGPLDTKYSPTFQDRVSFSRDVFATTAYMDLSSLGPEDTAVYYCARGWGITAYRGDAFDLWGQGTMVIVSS VL: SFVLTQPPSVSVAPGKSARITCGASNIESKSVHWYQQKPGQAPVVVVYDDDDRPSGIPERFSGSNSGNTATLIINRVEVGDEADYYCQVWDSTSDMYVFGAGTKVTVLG	µg/mL	0.0767
